The entries below are paired with their reported CC50 at 24 h.
assay: Cytotoxicity against human Hep2 cells assessed as reduction of cell viability after 24 hrs by trypan blue exclusion assay; format: cell-based; settings: HEp-2 cells

A selection of reference data follows.
C/C(=N\Nc1nc(-c2ccc(Cl)cc2Cl)cs1)C1CCCCC1
42 mg/L
C=CCC/C(C)=N/Nc1nc(-c2ccc(OC)cc2)cs1
35 mg/L
CCC(CC)=NNc1nc(-c2ccc(C)cc2)cs1
≥ 100 mg/L

Give the reported value of CC50 at 24 h for this record: CCC/C(C)=N/Nc1nc(-c2ccc(OC)cc2)cs1 36 mg/L

Supply CC50 at 24 h value. Item: CC/C(C)=N/Nc1nc(-c2ccc(OC)cc2)cs1 25 mg/L

Output CC50 at 24 h of CCC/C(C)=N/Nc1nc(-c2ccc(C)cc2)cs1 ≥ 100 mg/L

Check the records and state CC50 at 24 h for Clc1ccc(-c2csc(NN=C3CCCCCCC3)n2)c(Cl)c1 41 mg/L

Find the measured CC50 at 24 h of Clc1ccccc1C(c1ccccc1)(c1ccccc1)n1ccnc1 and report it. 38 mg/L

Identify CC50 at 24 h associated with the compound CCCC/C(CC)=N/Nc1nc(-c2ccc(OC)cc2)cs1 35 mg/L
